B1: library; a variant is named by its letters at N, in order (parent)
chain: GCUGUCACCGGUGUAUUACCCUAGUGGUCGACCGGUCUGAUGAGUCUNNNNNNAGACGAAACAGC

- Variants of: B1
- method_notes: normalized RNA/DNA level without ligand (relative to sTRSVctl = 100) (log10 (% of sTRSVctl)); ligand: hypoxanthine (xanthine aptamer); higher = less ribozyme self-cleavage, higher mRNA level
- condition_notes: HEK293T, reporter: mCherry (pCS4076), ligand present: no
Each record here notes measured normalized RNA/DNA level without ligand (log10).

Observe how each entry below is paired with its result.
[
  {
    "mutation_key": "ACUCGU",
    "reported_value": 1.89
  },
  {
    "mutation_key": "GUCUGC",
    "reported_value": 1.71
  },
  {
    "mutation_key": "UUCUUG",
    "reported_value": 1.79
  }
]

Next up:
normalized RNA/DNA level without ligand (log10) for `AGGAGG` is 1.19
